Numbers sourced from ChEMBL document CHEMBL2311377.

molecular target: Xanthine dehydrogenase/oxidase (Rattus norvegicus); assay: Inhibition of Wistar albino rat xanthine oxidase isolated from liver using xanthine as substrate incubated for 15 mins prior to substrate addition by spectrophotometric analysis
Sequence (P22985 whole entry): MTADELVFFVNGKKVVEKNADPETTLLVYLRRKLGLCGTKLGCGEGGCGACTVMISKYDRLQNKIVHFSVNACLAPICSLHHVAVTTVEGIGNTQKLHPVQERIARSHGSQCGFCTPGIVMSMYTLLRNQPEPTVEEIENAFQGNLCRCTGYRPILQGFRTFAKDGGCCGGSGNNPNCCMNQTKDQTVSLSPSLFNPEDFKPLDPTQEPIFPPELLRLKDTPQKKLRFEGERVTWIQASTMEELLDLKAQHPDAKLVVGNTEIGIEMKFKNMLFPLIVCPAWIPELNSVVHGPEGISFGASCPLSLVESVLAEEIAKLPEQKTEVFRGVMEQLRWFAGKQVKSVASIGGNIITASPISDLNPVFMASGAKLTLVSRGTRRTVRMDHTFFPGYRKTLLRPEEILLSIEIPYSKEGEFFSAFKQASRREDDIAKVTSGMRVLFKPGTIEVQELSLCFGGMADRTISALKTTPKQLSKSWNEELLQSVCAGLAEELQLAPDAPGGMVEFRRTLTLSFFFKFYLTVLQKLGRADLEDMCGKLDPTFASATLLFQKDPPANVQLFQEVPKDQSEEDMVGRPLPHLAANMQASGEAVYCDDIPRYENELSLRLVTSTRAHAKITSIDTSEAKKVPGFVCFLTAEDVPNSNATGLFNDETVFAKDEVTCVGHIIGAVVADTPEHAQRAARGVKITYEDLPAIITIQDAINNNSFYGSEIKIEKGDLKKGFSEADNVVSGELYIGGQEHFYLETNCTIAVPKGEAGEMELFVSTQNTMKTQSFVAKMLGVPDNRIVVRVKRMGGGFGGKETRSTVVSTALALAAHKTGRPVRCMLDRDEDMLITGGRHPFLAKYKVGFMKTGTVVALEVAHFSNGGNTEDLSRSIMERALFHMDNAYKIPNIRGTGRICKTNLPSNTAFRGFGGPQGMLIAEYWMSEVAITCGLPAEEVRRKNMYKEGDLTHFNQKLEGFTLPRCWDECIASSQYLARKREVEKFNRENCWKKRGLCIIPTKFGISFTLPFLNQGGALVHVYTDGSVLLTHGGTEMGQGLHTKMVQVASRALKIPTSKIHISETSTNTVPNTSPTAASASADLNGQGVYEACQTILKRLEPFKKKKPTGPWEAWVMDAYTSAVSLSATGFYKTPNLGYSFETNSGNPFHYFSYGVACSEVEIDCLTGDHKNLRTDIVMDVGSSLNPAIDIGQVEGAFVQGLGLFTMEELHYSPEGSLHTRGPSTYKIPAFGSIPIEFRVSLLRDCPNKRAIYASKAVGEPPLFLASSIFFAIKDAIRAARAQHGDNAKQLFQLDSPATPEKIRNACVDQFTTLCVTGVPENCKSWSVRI
readout_name: pIC50
Conceptually, pIC50 converts a concentration in mol/L into minus its log10.

Query (molecule): Clc1ccc(-c2csc(N3N=C(c4cc(Cl)sc4SCc4ccccc4)CC3c3ccc(Cl)cc3)n2)cc1 (stereo not drawn) ; field requested: pIC50
4.49

Query (molecule): CN(C)c1ccc(C2CC(c3cc(Cl)sc3Cl)=NN2c2nc(-c3ccc(Cl)cc3)cs2)cc1 (stereo not drawn) ; field requested: pIC50
5.03

Query (molecule): CCCCc1nc(Cl)c(C2CC(c3cc(Cl)sc3Cl)=NN2c2nc(-c3ccc(Cl)cc3)cs2)[nH]1 (stereo not drawn) ; field requested: pIC50
4.59

Query (molecule): CCCCc1nc(Cl)c(C2CC(c3cc(Cl)sc3SCc3ccccc3)=NN2c2nc(-c3ccc(Cl)cc3)cs2)[nH]1 (stereo not drawn) ; field requested: pIC50
4.70

Okay, next one:
Query (molecule): CN(C)c1ccc(C2CC(c3cc(Cl)sc3SCc3ccccc3)=NN2c2nc(-c3ccc(Cl)cc3)cs2)cc1 (stereo not drawn) ; field requested: pIC50
5.21
